- target entity: Insulin receptor (Homo sapiens, UniProt P06213)
- Sequence (P06213 28-758 limits assumed): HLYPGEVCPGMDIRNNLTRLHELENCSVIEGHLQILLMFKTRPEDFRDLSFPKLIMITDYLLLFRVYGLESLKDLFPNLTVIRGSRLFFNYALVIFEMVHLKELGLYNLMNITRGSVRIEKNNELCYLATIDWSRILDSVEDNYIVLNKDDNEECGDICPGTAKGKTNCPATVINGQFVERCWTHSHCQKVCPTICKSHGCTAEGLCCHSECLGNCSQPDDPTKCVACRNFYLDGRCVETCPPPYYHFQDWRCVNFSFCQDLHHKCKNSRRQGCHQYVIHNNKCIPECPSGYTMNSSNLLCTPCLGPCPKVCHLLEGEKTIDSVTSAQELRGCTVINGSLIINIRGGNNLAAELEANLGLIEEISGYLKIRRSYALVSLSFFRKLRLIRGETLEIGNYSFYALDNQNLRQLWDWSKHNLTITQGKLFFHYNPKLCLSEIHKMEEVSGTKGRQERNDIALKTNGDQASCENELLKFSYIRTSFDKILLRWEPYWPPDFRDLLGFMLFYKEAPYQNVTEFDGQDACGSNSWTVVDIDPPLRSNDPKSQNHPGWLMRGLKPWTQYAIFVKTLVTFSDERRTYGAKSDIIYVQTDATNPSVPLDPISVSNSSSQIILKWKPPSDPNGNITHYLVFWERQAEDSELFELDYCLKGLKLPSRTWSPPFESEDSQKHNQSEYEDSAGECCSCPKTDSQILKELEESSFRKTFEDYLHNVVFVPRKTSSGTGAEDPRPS
- Sequence (P06213 763-1382 limits assumed): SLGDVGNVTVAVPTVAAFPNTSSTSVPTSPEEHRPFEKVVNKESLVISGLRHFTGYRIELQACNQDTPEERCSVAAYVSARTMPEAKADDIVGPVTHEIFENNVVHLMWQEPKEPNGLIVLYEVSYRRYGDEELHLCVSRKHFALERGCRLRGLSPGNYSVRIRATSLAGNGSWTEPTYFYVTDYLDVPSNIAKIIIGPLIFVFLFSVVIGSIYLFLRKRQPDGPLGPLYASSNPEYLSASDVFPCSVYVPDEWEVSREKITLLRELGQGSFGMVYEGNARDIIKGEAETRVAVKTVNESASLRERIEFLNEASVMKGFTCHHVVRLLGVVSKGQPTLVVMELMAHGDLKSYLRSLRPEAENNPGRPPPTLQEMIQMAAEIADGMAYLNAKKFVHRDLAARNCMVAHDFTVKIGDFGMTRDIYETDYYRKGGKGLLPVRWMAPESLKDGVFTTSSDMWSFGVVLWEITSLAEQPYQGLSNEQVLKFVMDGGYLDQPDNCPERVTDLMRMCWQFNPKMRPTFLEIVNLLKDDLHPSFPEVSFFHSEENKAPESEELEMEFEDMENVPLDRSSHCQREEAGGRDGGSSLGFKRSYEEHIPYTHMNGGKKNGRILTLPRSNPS
- experiment notes: Inhibition of recombinant INSR (unknown origin) using fluorescent dye-labelled KKSRGDYMTMQIG peptide peptide as substrate after 1 hr by IMAP assay
value kind: IC50 (µM)

Challenge: What value of measured IC50 is listed for COc1cc2c(Oc3ccc(NS(=O)(=O)c4cccc(-c5ccoc5)c4)cc3F)ccnc2cc1OCCCN1CCN(C)CC1 ?
Response given: 5.23

Challenge: Thanks! And COc1cc2c(Oc3ccc(NC(=O)c4c(C)n(C)n(-c5ccccc5)c4=O)cc3F)ccnc2cc1OCCCN1CCN(C)CC1 ?
Response given: 0.039

Challenge: Thanks! And COc1cc2c(Oc3ccc(NS(=O)(=O)c4cccc(-c5ccsc5)c4)cc3F)ccnc2cc1OCCCN1CCN(C)CC1 ?
Response given: 2.87

Challenge: Thanks! And COc1cc2c(Oc3ccc(NS(=O)(=O)c4cc(-c5ccsc5)ccc4F)cc3F)ccnc2cc1OCCCN1CCN(C)CC1 ?
Response given: 11.8

(I) COc1cc2c(Oc3ccc(NC(=O)c4c(C)n(C)n(-c5ccccc5)c4=O)cc3F)ccnc2cc1OCCCN1CCOCC1
(II) COc1cc2c(Oc3ccc(NS(=O)(=O)c4cccc(-c5cnn(C)c5)c4)cc3F)ccnc2cc1OCCCN1CCN(C)CC1
Challenge: Response body: label of entry with the larger IC50; valid values I , II . Record your answer as the label of the chosen record.
Response given: II

----------
- target entity: Epidermal growth factor receptor (Homo sapiens)
- Sequence (P00533 whole entry): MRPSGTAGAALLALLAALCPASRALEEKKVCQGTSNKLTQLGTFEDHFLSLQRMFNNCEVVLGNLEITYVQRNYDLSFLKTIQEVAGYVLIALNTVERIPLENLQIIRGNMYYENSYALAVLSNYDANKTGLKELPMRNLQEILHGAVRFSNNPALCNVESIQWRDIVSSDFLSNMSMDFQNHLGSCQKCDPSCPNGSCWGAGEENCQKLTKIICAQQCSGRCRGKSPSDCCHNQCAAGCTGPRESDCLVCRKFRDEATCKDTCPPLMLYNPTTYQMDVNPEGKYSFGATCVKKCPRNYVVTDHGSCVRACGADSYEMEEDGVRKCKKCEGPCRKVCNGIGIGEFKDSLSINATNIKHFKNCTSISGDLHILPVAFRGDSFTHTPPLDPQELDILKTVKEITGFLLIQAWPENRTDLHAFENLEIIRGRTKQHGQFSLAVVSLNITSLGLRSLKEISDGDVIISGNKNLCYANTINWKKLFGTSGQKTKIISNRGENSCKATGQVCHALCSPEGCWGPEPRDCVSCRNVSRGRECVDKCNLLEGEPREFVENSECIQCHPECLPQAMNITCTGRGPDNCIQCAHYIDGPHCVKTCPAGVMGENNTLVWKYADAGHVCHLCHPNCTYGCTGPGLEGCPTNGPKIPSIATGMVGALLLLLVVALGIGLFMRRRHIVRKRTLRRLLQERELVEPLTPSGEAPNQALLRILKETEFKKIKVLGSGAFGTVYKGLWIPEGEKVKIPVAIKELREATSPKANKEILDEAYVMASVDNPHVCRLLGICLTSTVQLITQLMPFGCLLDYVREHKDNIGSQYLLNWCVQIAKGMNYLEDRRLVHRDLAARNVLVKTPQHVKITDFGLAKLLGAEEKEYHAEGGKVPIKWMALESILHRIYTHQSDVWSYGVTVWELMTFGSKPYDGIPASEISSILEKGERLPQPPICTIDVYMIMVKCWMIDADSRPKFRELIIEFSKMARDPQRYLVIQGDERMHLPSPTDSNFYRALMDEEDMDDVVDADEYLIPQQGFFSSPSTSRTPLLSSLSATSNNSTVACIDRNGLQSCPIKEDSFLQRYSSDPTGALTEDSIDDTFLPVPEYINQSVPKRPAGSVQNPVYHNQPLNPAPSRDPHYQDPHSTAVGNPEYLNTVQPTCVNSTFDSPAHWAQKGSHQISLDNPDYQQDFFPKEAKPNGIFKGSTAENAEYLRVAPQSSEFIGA
- experiment notes: Inhibition of recombinant EGFR (unknown origin) using poly-GT peptide as substrate by Transcreener assay
value kind: IC50 (nM)

Look over these answered cases.
Challenge: What value of measured IC50 is listed for COc1cc2c(Oc3ccc(NS(=O)(=O)c4cccc(-c5ccoc5)c4)cc3F)ccnc2cc1OCCCN1CCN(C)CC1 ?
Response given: 168

Challenge: Thanks! And COc1cc2c(Oc3ccc(NS(=O)(=O)c4cccc(-c5ccoc5)c4)cc3F)ccnc2cc1OCCCN1CCOCC1 ?
Response given: 3860

Challenge: Thanks! And COc1cc2c(Oc3ccc(NS(=O)(=O)c4cccc(-c5ccsc5)c4)cc3F)ccnc2cc1OCCCN1CCN(C)CC1 ?
Response given: 94

(I) COc1cc2c(Oc3ccc(NS(=O)(=O)c4ccc(-c5cnn(C)c5)cc4)cc3F)ccnc2cc1OCCCN1CCN(C)CC1
(II) COc1cc2c(Oc3ccc(NS(=O)(=O)c4cccc(-c5cnn(C)c5)c4)cc3F)ccnc2cc1OCCCN1CCN(C)CC1
(III) COc1cc2c(Oc3ccc(NS(=O)(=O)c4cccc(-c5cccs5)c4)cc3F)ccnc2cc1OCCCN1CCN(C)CC1
(IV) COc1cc2c(Oc3ccc(NC(=O)c4c(C)n(C)n(-c5ccccc5)c4=O)cc3F)ccnc2cc1OCCCN1CCN(C)CC1
Challenge: Which order do these items take when sorted by rising IC50? List them. State the ranking by listing the labels in the requested order.
Response given: II, III, I, IV
(II: 84 nM, III: 1050 nM, I: 4350 nM, IV: 7670 nM)

----------
- target entity: Hepatocyte growth factor receptor (Homo sapiens, UniProt P08581)
- Sequence (P08581 whole entry): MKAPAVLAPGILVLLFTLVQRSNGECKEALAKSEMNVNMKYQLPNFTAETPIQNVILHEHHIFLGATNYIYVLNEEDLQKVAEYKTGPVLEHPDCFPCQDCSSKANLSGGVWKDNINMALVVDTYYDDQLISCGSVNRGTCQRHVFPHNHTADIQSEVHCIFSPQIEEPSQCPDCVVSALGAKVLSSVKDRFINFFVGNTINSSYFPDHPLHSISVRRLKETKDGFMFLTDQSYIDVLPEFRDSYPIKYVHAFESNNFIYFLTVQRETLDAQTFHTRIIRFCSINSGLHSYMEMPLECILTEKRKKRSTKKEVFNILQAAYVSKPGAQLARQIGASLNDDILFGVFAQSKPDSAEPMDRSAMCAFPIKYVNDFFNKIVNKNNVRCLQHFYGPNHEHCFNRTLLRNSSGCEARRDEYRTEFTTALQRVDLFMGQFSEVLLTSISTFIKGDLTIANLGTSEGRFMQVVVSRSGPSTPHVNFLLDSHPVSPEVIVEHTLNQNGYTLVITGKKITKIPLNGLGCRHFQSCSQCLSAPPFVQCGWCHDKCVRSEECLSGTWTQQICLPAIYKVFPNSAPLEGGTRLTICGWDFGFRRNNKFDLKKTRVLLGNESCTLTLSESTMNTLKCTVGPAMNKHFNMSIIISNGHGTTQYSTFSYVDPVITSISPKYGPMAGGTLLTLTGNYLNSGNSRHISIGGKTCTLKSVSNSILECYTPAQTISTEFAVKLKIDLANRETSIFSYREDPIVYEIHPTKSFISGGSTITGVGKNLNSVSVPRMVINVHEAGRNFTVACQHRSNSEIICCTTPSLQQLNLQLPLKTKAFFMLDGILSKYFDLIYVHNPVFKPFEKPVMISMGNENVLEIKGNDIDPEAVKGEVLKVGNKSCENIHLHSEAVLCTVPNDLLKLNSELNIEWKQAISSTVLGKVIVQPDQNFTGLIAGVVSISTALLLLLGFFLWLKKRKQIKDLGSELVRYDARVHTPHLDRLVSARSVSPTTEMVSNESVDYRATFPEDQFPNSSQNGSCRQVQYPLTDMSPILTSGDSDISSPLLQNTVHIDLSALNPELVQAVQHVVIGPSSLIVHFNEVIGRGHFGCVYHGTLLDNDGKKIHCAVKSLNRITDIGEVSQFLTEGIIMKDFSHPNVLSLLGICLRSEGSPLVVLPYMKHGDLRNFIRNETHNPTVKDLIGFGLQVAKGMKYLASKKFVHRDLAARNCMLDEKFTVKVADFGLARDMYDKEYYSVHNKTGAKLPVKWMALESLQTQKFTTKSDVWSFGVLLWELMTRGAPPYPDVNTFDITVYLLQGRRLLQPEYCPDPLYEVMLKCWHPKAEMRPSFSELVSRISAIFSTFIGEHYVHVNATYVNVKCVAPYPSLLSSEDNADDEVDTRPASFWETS
- experiment notes: Inhibition of recombinant c-MET (unknown origin) using poly-AEKY peptide as substrate after 60 mins by ADPGlo assay
pIC50: −log10 of the molar value.
value kind: pIC50

Challenge: What value of measured pIC50 is listed for COc1cc2c(Oc3ccc(NS(=O)(=O)c4cccc(-c5ccoc5)c4)cc3F)ccnc2cc1OCCCN1CCN(C)CC1 ?
Response given: 5.98

Challenge: Thanks! And COc1cc2c(Oc3ccc(NS(=O)(=O)c4ccc(-c5cnn(C)c5)cc4)cc3F)ccnc2cc1OCCCN1CCN(C)CC1 ?
Response given: 5.91

Challenge: Thanks! And COc1cc2c(Oc3ccc(NS(=O)(=O)c4cccc(-c5ccoc5)c4)cc3F)ccnc2cc1OCCCN1CCOCC1 ?
Response given: 6.01

----------
Reported pIC50 values follow for various molecules
- target entity: Insulin receptor (Homo sapiens)
- experiment notes: Inhibition of recombinant INSR (unknown origin) using fluorescent dye-labelled KKSRGDYMTMQIG peptide peptide as substrate after 1 hr by IMAP assay
pIC50: −log10 of the molar value.

Look over these answered cases.
Challenge: What value of measured pIC50 is listed for COc1cc2c(Oc3ccc(NS(=O)(=O)c4cccc(-c5cccs5)c4)cc3F)ccnc2cc1OCCCN1CCN(C)CC1 ?
Response given: < 4.90

Challenge: Thanks! And COc1cc2c(Oc3ccc(NS(=O)(=O)c4cccc(-c5cnn(C)c5)c4)cc3F)ccnc2cc1OCCCN1CCOCC1 ?
Response given: < 4.90

Challenge: Thanks! And COc1cc2c(Oc3ccc(NS(=O)(=O)c4cccc(-c5ccoc5)c4)cc3F)ccnc2cc1OCCCN1CCOCC1 ?
Response given: < 4.90

Challenge: Thanks! And COc1cc2c(Oc3ccc(NS(=O)(=O)c4ccc(-c5ccsc5)cc4)cc3F)ccnc2cc1OCCCN1CCN(C)CC1 ?
Response given: < 4.90

Challenge: Thanks! And COc1cc2c(Oc3ccc(NS(=O)(=O)c4cccc(-c5ccco5)c4)cc3F)ccnc2cc1OCCCN1CCN(C)CC1 ?
Response given: < 4.90

Continuing:
Challenge: What value of measured pIC50 is listed for COc1cc2c(Oc3ccc(NS(=O)(=O)c4ccc(-c5cnn(C)c5)cc4)cc3F)ccnc2cc1OCCCN1CCN(C)CC1 ?
Response given: < 4.90

Origin of values: ChEMBL document CHEMBL3259680
